Where these numbers come from: PubChem BioAssay (NCATS)

assay_text: qHTS assay for measurement of the activity of small molecule inhibitors on Zika virus induced Caspase-3 activity in human astrocytoma cells (AID 1224859)
measurement_conditions: SNB-19 ZIKV-induced caspase-3/7, luminescence, 6 h; series mostly up to 45.7 µM
The source made the active and inactive calls. Calls come from the whole dose curve; as a rule, active = well fitted inhibition curve with a large enough effect; inconclusive = small, poorly fitted or top-dose-only effect; inactive = no such curve, though single readings can be large or run the other way.
Labels: active, inactive

1. CCOc1cc2c(c(F)c1OCC)C(=N)N(CC(=O)c1cc(N3CCOCC3)c(OC)c(C(C)(C)C)c1)C2; inactive
2. CCOc1cc2ncc(C#N)c(Nc3ccc(OCc4ccccn4)c(Cl)c3)c2cc1NC(=O)C=CCN(C)C; inactive
3. N#Cc1c(NC(=O)c2cccc3ccccc23)sc2c1CCCC2; inactive
4. CN(C)CC[C@H](c1ccc(Cl)cc1)c1ccccn1; inactive
5. Nc1nc(N)c2nc(-c3cccc(O)c3)c(-c3cccc(O)c3)nc2n1; inactive
6. COC1=C2C[C@@H](C)C[C@H](OC)[C@@H](O)[C@@H](C)C=C(C)[C@H](OC(N)=O)[C@@H](OC)C=CC=C(C)C(=O)NC(=CC1=O)C2=O; inactive
7. CC[C@H]1OC(=O)[C@H](C)[C@@H](O[C@H]2C[C@@](C)(OC)[C@@H](O)[C@H](C)O2)[C@H](C)[C@@H](O[C@@H]2O[C@@H](C)C[C@H](N(C)C)[C@@H]2O)[C@](C)(O)C[C@@H](C)C(=O)[C@H](C)[C@@H](O)[C@]1(C)O; inactive
8. CC1(C)[C@H](O[C@H]2O[C@H](C(=O)O)[C@@H](O)[C@H](O)[C@H]2O[C@@H]2O[C@H](C(=O)O)[C@@H](O)[C@H](O)[C@H]2O)CC[C@@]2(C)[C@H]1CC[C@]1(C)[C@H]2C(=O)C=C2[C@H]3C[C@@](C)(C(=O)O)CC[C@]3(C)CC[C@]21C; inactive
9. O=C(C=CC=Cc1ccc2c(c1)OCO2)N1CCCCC1; active
10. CC(N[C@H]1CCCC[C@H]1NC(=O)c1ccc(Cl)cc1)c1cccc2ccccc12 (stereo partly specified); inactive
11. CC(=O)N[C@H]1[C@@H]([C@H](O)[C@H](O)CO)OC(C(=O)O)=C[C@@H]1N=C(N)N; inactive
12. C=CCNC1=C2C[C@@H](C)C[C@H](OC)[C@@H](O)[C@@H](C)C=C(C)[C@H](OC(N)=O)[C@@H](OC)C=CC=C(C)C(=O)NC(=CC1=O)C2=O; inactive
13. O=C(O)C=Cc1ccc(Cn2ccnc2)cc1; inactive
14. CN1C(C(=O)Nc2ccccn2)=C(O)c2sc(Cl)cc2S1(=O)=O; inactive
15. O=C(O)C[C@H](O)C[C@H](O)C=Cc1c(C2CC2)nc2ccccc2c1-c1ccc(F)cc1; inactive
16. C=C(C)[C@@H]1CC[C@]2(C)CC[C@]3(C)[C@H](CC[C@@H]4[C@@]5(C)CC[C@H](O)C(C)(C)[C@H]5CC[C@]43C)[C@@H]12; inactive

---

assay_text: qHTS Screen of the MIPE 4.0 Collection Against Ewings Sarcoma (EW8) (AID 1259255); note: nearly all actives have a fitted effect of over 35% in size;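 for viability: 100% = DMSO-treated cells and 0% = medium-only wells without cells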
measurement_conditions: EW8 Ewing sarcoma viability, CellTiter-Glo, 48 h; series mostly up to 45.8 µM
Records with an inconclusive call do not appear. Activity calls are given as the source filed them. The call rests on the fitted dose curve; in most records, active means well fitted inhibition curve with a large enough effect; inconclusive means small, poorly fitted or top-dose-only effect; inactive means no such curve, though single readings can be large or run the other way.
Labels: active, inactive

1) C=CC(=O)Nc1cc(NC(=O)c2ccc(C)c(NC(=O)c3ccno3)c2)cc(C(F)(F)F)c1; active
2) CC(C)(C)[N+]([O-])=Cc1ccc(S(=O)(=O)O)cc1S(=O)(=O)O; inactive
3) CCC(C=C[C@@H]1OC(=O)C=C[C@H]1C)=C[C@H](C)CC=CC(C)=C[C@@H](C)C(=O)[C@@H](C)[C@H](O)[C@@H](C)CC(C)=CC(=O)O; active
4) CC[C@H]1OC(=O)[C@H](C)[C@@H](O[C@H]2C[C@@](C)(OC)[C@@H](O)[C@H](C)O2)[C@H](C)[C@@H](O[C@@H]2O[C@H](C)C[C@H](N(C)C)[C@@H]2O)[C@](C)(OC)C[C@@H](C)C(=O)[C@H](C)[C@@H](O)[C@]1(C)O; inactive
5) CN(C)CC(=O)N1CCC(c2ccc(NC(=O)c3ncc(C#N)[nH]3)c(C3=CCCCC3)c2)CC1; active
6) COc1ccc2cc([S+]([O-])Cc3ncc(C)c(OC)c3C)nc2c1; inactive
7) C#C[C@]1(O)CC[C@@H]2[C@@H]3CCC4=CC(=O)CC[C@@H]4[C@H]3CC[C@@]21CC; inactive
8) CC1(C)O[C@@H]2C[C@H]3[C@@H]4CCC5=CC(=O)C=C[C@]5(C)[C@@H]4[C@@H](O)C[C@]3(C)[C@]2(C(=O)CO)O1; inactive
9) CC(C)(O)Cn1c(NC(=O)c2ccc(-c3cn[nH]c3)s2)nc2cc(CN3CCOCC3)ccc21; active
10) CC(=O)ON=C1C(c2c(O)[nH]c3cc(Br)ccc23)=Nc2ccccc21; active
11) Nc1ccn(C[C@@H](CO)OCP(=O)(O)O)c(=O)n1; inactive
12) c1ccc(CNc2nc(NCc3ccccc3)c3ccccc3n2)cc1; active
13) Nc1cccc2c1C(=O)N(C1CCC(=O)NC1=O)C2=O (configuration not stated); inactive
14) C=C1C(=O)O[C@H]2[C@@H]1CCC(C)=CCC[C@@]1(C)O[C@@H]21; active
15) COc1cc2c(cc1O)CCC1C2CC[C@@]2(C)C1CC[C@@H]2O (some centres not stated); active
16) COc1ccc(C[C@@H](C)[C@@H](C)Cc2ccc(OC)c(OC)c2)cc1OC; active
17) C=CCNC1=C2C[C@@H](C)C[C@H](OC)[C@@H](O)[C@@H](C)C=C(C)[C@H](OC(N)=O)[C@@H](OC)C=CC=C(C)C(=O)NC(=CC1=O)C2=O; active

---

System: TAB109
assay_text: qHTS profiling for inhibitors of Plasmodium falciparum proliferation (AID 504749); note: nearly all actives have a fitted effect of over 60% in size
measurement_conditions: P. falciparum in erythrocytes, SYBR Green DNA, 72 h; series mostly up to 28.7 µM
Inconclusive results are not listed. Activity calls are given as the source filed them. Calls come from the whole dose curve; as a rule, active = well fitted inhibition curve with a large enough effect; inconclusive = small, poorly fitted or top-dose-only effect; inactive = flat fitted curve, though single readings scatter.
Labels: True for active, False for inactive

1. CCCCCCCCCCCC(CC1OC(=O)C1CCCCCC)OC(=O)C(CC(C)C)NC=O (stereo unspecified); True
2. Nc1nc2c(c(=O)[nH]1)N(C=O)[C@H](CNc1ccc(C(=O)N[C@@H](CCC(=O)O)C(=O)O)cc1)CN2; False
3. COc1cccc2c1C(=O)c1c(O)c3c(c(O)c1C2=O)C[C@@](O)(C(=O)CO)C[C@@H]3O[C@H]1C[C@H](N)[C@H](OC2CCCCO2)[C@H](C)O1 (stereo partly specified); True
4. OCC(O)C(O)C(O)CO (stereo unspecified); False
5. COc1ccc2c(c1OC)C(=O)OC2[C@H]1c2c(cc3c(c2OC)OCO3)CCN1C (stereo partly specified); False
6. CCC(C(=O)O)C1CCC(C)C(C(C)C(O)C(C)C(=O)C(CC)C2OC3(C=CC(O)[C@@]4(CC[C@](C)(C5CC[C@@](O)(CC)C(C)O5)O4)O3)C(C)CC2C)O1 (stereo partly specified); True

---

assay_text: qHTS of pediatric cancer cell lines to identify multiple opportunities for drug repurposing: Confirmatory screen for control Hh wild type fibroblast cells (AID 1347121); note: nearly all actives have a fitted effect of over 70% in size
measurement_conditions: viability qHTS; series mostly up to 45.9 µM
Results filed as inconclusive are left out. Activity calls are given as the source filed them. Calls come from the whole dose curve; as a rule, active = well fitted cell-killing curve with a large enough effect; inconclusive = small, poorly fitted or top-dose-only effect, or effect the other way; inactive = flat fitted curve, though single readings scatter.
Labels: 1 (active), -1 (inactive)

1. C[C@H](NCc1ccc2c(c1)nc(NC(=O)c1ccc(-c3cn[nH]c3)s1)n2CCc1ccccc1)C(C)(C)C; 1
2. COc1ccc(Nc2cc(-c3cnc(N)nc3)nc(N3CCOCC3)n2)cn1; -1
3. O=C(Nc1cc2cc[nH]c2cn1)c1ccccc1; 1
4. CN[C@@H]1C[C@H]2O[C@@](C)([C@H]1OC)n1c3ccccc3c3c4c(c5c6ccccc6n2c5c31)C(=O)N[C@H]4O; 1
5. COc1ccc(C=Cc2cc(OC)c(OC)c(OC)c2)cc1NC(=O)[C@H](N)CO; -1
6. CC[C@]12C=CCN3CC[C@@]4(c5cc([C@@]6(C(=O)OC)C[C@H]7C[C@@H](C(C)(F)F)CN(Cc8c6[nH]c6ccccc86)C7)c(OC)cc5N(C)[C@H]4[C@@](O)(C(=O)OC)[C@H]1OC(C)=O)[C@@H]32; -1
7. CNC(=O)c1ccc(Nc2cc(Nc3ccccc3S(=O)(=O)C(C)C)c3cc[nH]c3n2)nc1; 1
8. O=C1NCCc2[nH]c(-c3ccncc3)cc21; -1

---

assay_text: Quantitative High-Throughput drug screen in 47 multiple myeloma cell lines against the NCATS MIPE library collection: OCIMY1_PLB cell viability assay (AID 1918979); note: nearly all actives have a fitted effect of over 35% in size;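 for viability: 100% = DMSO-only wells and 0% = cell-free media-only wells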
measurement_conditions: OCI-MY1 myeloma viability, CellTiter-Glo ATP, 48 h; series mostly up to 45.8 µM
Inconclusive results are not listed. The source made the active and inactive calls. Calls follow the shape of the dose curve; as a rule, active = well fitted cell-killing curve with a large enough effect; inconclusive = small, poorly fitted or top-dose-only effect, or effect the other way; inactive = no such curve, though single readings can be large or run the other way.
Labels: T for active, F for inactive

1) CC[C@H](CC[C@@H](C)[C@H]1CC[C@H]2[C@@H]3CC=C4C[C@@H](O)CC[C@]4(C)[C@@H]3CC[C@]12C)C(C)C; F
2) Cc1cn([C@@H]2O[C@H](CO)[C@@H](O)[C@H]2F)c(=O)[nH]c1=O; F
3) O=C(O)CCCCC(CCSCc1ccccc1)SCc1ccccc1 (configuration not stated); F
4) O=C1c2c(O)cccc2[C@@H]([C@@H]2O[C@H](CO)[C@@H](O)[C@H](O)[C@H]2O)c2cc(CO)cc(O)c21; F
5) C=Cc1c(C)c2cc3nc(cc4[nH]c(cc5nc(cc1[nH]2)C(C)=C5CCC(=O)O)c(CCC(=O)OC)c4C)[C@@]1(C)C3=CC=C(C(=O)OC)[C@H]1C(=O)OC; T
6) OCc1ccccc1O[C@@H]1O[C@H](CO)[C@H](O)[C@H](O)[C@H]1O; F
7) Nc1cccc2c1C(=O)N(C1CCC(=O)NC1=O)C2=O (configuration not stated); F
8) Cc1ncc(-c2ccnc(Nc3ccc(S(C)(=O)=O)cc3)n2)n1C(C)C; T
9) C[C@@H]1CC[C@@]2(OC1)OC1CC3C4CC=C5CC(O)CCC5(C)C4CCC3(C)C1[C@@H]2C (some centres not stated); F
10) CCOC(=O)N1CCN([N+]([O-])=NOc2ccc([N+](=O)[O-])cc2[N+](=O)[O-])CC1; T
11) CCCCC(=O)O[C@]1(C(=O)CO)[C@@H](C)C[C@H]2[C@@H]3CCC4=CC(=O)C=C[C@]4(C)[C@@]3(F)[C@@H](O)C[C@@]21C; F
12) COc1cc2c(cc1O)CCC1C2CC[C@@]2(C)C1CC[C@@H]2O (some centres not stated); T
13) O=C1NCCc2[nH]c(-c3ccncc3)cc21; T
14) CC(=O)O[C@]1(C(C)=O)CC[C@H]2[C@@H]3C=C(C)C4=CC(=O)CC[C@]4(C)[C@@H]3CC[C@@]21C; F
15) CC[C@]12C=CCN3CC[C@@]4(c5cc([C@@]6(C(=O)OC)C[C@H]7C[C@@H](C(C)(F)F)CN(Cc8c6[nH]c6ccccc86)C7)c(OC)cc5N(C)[C@H]4[C@@](O)(C(=O)OC)[C@H]1OC(C)=O)[C@@H]32; T
16) CC(C)C[C@H](NC(=O)[C@@H](NC(=O)c1cccc(-c2ccccc2)n1)[C@@H](C)O)B(O)O; T
17) Cc1ccc([N+](=O)[O-])cc1S(=O)(=O)N(C)N=Cc1cnc2ccc(Br)cn12; T
